System: Granta-519
Experiment: PROTAC compounds evaluated against lymphoma cell line Granta-519
Format: cell-based
Settings: Homo sapiens; Granta-519 lymphoma cell line
PARAMETER: IC50

Please look up its IC50: C[C@@H]1C[C@H](C)CN(S(=O)(=O)c2ccc3c(c2)C(=NO)c2cc(S(=O)(=O)N4C[C@H](C)C[C@H](C)C4)ccc2C3=NO)C1 [Tegavivint, tegavivint, reference compound]
94 nM
